- TESTED_ON: Somatostatin receptor type 5 (Homo sapiens) (UniProt P35346)
- Sequence (P35346 whole entry): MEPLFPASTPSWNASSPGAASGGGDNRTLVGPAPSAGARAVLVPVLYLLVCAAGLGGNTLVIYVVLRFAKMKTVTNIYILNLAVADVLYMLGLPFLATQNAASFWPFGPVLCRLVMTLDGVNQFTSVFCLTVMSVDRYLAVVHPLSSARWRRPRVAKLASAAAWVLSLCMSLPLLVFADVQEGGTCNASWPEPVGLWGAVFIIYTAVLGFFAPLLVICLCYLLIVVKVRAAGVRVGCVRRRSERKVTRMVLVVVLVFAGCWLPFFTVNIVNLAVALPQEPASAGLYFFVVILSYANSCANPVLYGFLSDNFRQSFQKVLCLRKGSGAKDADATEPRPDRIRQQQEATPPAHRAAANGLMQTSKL
- METHOD_DESCRIPTION: Inhibition of SST5 receptor at 10 uM
Given measured inhibition, output True if it is greater than or equal to 10% and False if not.

q: Assess whether reported inhibition for `CO[C@@H]1CN(C[C@H]2Cc3ccc(C#N)cc3C2)CC[C@H]1n1c(C(C)(C)O)nc2cc(C)ccc21` sits at 10% or higher.
a: True

q: Field entry: `CO[C@@H]1CN(C[C@H]2Cc3ccc(Br)cc3C2)CC[C@H]1n1c(C)nc2cc(C)ccc21`
a: True

q: Now try `Cc1ccc2c(c1)nc(C)n2C1CCN(CCCc2cccc(NC(=O)C(C)C)c2)CC1` .
a: True

q: Then what about the compound `CO[C@H]1CN(CCCc2cccc(NC(=O)C3CC3)c2)CC[C@@H]1n1c(C)nc2cc(C)ccc21` ?
a: True

q: Please do the same for `CO[C@@H]1CN(CC2Cc3ccccc3C2)CC[C@H]1n1c(C)nc2cc(C)ccc21` as well.
a: False

* * *

- TESTED_ON: Sodium-dependent serotonin transporter (Homo sapiens)
- METHOD_DESCRIPTION: Inhibition of SERT at 10 uM
PROPERTY_NAME: inhibition (%)
Respond numerically; units are % and should not be typed.

q: Reported inhibition for `Cc1ccc2c(c1)nc(C)n2C1CCN(CCCc2cccc(NC(=O)C(C)C)c2)CC1` : what is it?
a: 83

q: Okay, and `CO[C@@H]1CN(C[C@H]2Cc3ccc(Br)cc3C2)CC[C@H]1n1c(C)nc2cc(C)ccc21` ?
a: 59

q: Continue with `CO[C@@H]1CN(CC2Cc3ccccc3C2)CC[C@H]1n1c(C)nc2cc(C)ccc21`
a: 14

q: Continue with `CO[C@@H]1CN(C[C@H]2Cc3ccc(C#N)cc3C2)CC[C@H]1n1c(C(C)(C)O)nc2cc(C)ccc21`
a: 6

q: Follow-up item: `CO[C@@H]1CN(C[C@@H]2Cc3ccc(NC(=O)C(C)C)cc3C2)CC[C@H]1n1c(C)nc2cc(C)ccc21`
a: 32

q: Can you handle `CO[C@H]1CN(CCCc2cccc(NC(=O)C3CC3)c2)CC[C@@H]1n1c(C)nc2cc(C)ccc21` next?
a: 67

q: Request: `COC(=O)Nc1ccc2c(c1)C[C@@H](CN1CC[C@@H](n3c(C)nc4cc(C)ccc43)[C@H](OC)C1)C2`
a: 95

q: Also `CO[C@@H]1CN(C[C@H]2Cc3ccc(Br)cc3C2)CC[C@H]1n1c(C(C)(C)O)nc2cc(C)ccc21` ?
a: 28

* * *

- METHOD_DESCRIPTION: Clearance in Sprague-Dawley rat at 5 mg/kg, iv or 30 mg/kg, po
- Assay type: ADME, organism-based
- EXPERIMENTAL_SETUP: in vivo
PROPERTY_NAME: clearance (mL/min/kg)
Give the value in mL/min/kg but do not write mL/min/kg after it.

q: Name the reported clearance value associated with the compound `CO[C@@H]1CN(C[C@@H]2Cc3ccc(NC(=O)C(C)C)cc3C2)CC[C@H]1n1c(C)nc2cc(C)ccc21`
a: 36.5

q: Could you do the same for `CO[C@@H]1CN(C[C@H]2Cc3ccc(C#N)cc3C2)CC[C@H]1n1c(C(C)(C)O)nc2cc(C)ccc21` , please?
a: 49.5

* * *

Assign inhibition to each entry below.
- TESTED_ON: UniProtKB P08172
- Sequence (P08172 whole entry): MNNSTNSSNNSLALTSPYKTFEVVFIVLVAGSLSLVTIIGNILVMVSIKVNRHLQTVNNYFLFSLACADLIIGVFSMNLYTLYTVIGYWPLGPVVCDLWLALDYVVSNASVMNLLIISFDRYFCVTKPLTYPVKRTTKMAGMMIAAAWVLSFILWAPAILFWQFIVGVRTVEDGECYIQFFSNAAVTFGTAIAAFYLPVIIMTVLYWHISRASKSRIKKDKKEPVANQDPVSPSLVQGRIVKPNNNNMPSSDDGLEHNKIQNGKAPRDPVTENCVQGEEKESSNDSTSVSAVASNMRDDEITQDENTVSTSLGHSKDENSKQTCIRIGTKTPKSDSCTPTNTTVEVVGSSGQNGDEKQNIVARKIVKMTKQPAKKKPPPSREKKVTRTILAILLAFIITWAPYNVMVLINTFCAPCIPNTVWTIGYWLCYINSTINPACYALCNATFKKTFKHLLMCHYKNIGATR
- METHOD_DESCRIPTION: Inhibition of muscarinic M2 receptor at 10 uM
The answer is to be given in %; state only the numeric part.

q: // inhibition lookup, key: `CO[C@H]1CN(CCCc2cccc(NC(=O)C3CC3)c2)CC[C@@H]1n1c(C)nc2cc(C)ccc21`
a: 11

q: Another molecule: `COC(=O)Nc1ccc2c(c1)C[C@@H](CN1CC[C@@H](n3c(C)nc4cc(C)ccc43)[C@H](OC)C1)C2`
a: 22

q: Same question for `CO[C@@H]1CN(C[C@@H]2Cc3ccc(NC(=O)C(C)C)cc3C2)CC[C@H]1n1c(C)nc2cc(C)ccc21` please.
a: 3

q: Also, `CO[C@@H]1CN(C[C@H]2Cc3ccc(C#N)cc3C2)CC[C@H]1n1c(C(C)(C)O)nc2cc(C)ccc21` please.
a: 3

q: Can you check `CO[C@@H]1CN(C[C@H]2Cc3ccc(Br)cc3C2)CC[C@H]1n1c(C(C)(C)O)nc2cc(C)ccc21` next?
a: -8

q: Try `CO[C@@H]1CN(C[C@H]2Cc3ccc(Br)cc3C2)CC[C@H]1n1c(C)nc2cc(C)ccc21` next.
a: 48

q: Another: `CO[C@@H]1CN(CC2Cc3ccccc3C2)CC[C@H]1n1c(C)nc2cc(C)ccc21`
a: 6

q: And for `Cc1ccc2c(c1)nc(C)n2C1CCN(CCCc2cccc(NC(=O)C(C)C)c2)CC1` ?
a: 18

* * *

Answer each item with its documented half-life.
- METHOD_DESCRIPTION: Half life in Sprague-Dawley rat at 5 mg/kg, iv or 30 mg/kg, po
- Assay type: ADME, organism-based
- EXPERIMENTAL_SETUP: in vivo
Returns: string containing the numeric result and its unit.

q: Quick check: half-life of `CO[C@@H]1CN(C[C@@H]2Cc3ccc(NC(=O)C(C)C)cc3C2)CC[C@H]1n1c(C)nc2cc(C)ccc21` ?
a: 2.5 h

q: Next compound up: `CO[C@@H]1CN(C[C@H]2Cc3ccc(C#N)cc3C2)CC[C@H]1n1c(C(C)(C)O)nc2cc(C)ccc21`
a: 1.9 h

* * *

I'd appreciate it if you could supply AUC values for the items below.
- METHOD_DESCRIPTION: AUC in Sprague-Dawley rat plasma at 5 mg/kg, iv or 30 mg/kg, po
- Format: ADME, organism-based
All answers are understood in ng·h/mL, so give the number only.

q: Given the compound `CO[C@@H]1CN(C[C@H]2Cc3ccc(C#N)cc3C2)CC[C@H]1n1c(C(C)(C)O)nc2cc(C)ccc21` , what is its reported AUC?
a: 4730

q: Entry to check: `CO[C@@H]1CN(C[C@@H]2Cc3ccc(NC(=O)C(C)C)cc3C2)CC[C@H]1n1c(C)nc2cc(C)ccc21`
a: 8520

* * *

- TESTED_ON: Sodium-dependent dopamine transporter (Homo sapiens)
- METHOD_DESCRIPTION: Inhibition of DAT at 10 uM
Would you kindly list inhibition for each of these compounds?
Please report the result as a number followed by the unit.

q: Consider the compound shown here: `CO[C@@H]1CN(C[C@@H]2Cc3ccc(NC(=O)C(C)C)cc3C2)CC[C@H]1n1c(C)nc2cc(C)ccc21` What is its recorded inhibition?
a: 10%

q: Now consider `CO[C@@H]1CN(C[C@H]2Cc3ccc(C#N)cc3C2)CC[C@H]1n1c(C(C)(C)O)nc2cc(C)ccc21` .
a: -6%

q: Same question for `CO[C@H]1CN(CCCc2cccc(NC(=O)C3CC3)c2)CC[C@@H]1n1c(C)nc2cc(C)ccc21` please.
a: 32%

q: Would you mind doing `CO[C@@H]1CN(C[C@H]2Cc3ccc(Br)cc3C2)CC[C@H]1n1c(C(C)(C)O)nc2cc(C)ccc21` as well?
a: 68%

q: Now the compound `CO[C@@H]1CN(CC2Cc3ccccc3C2)CC[C@H]1n1c(C)nc2cc(C)ccc21`
a: 8%

q: Next entry: `COC(=O)Nc1ccc2c(c1)C[C@@H](CN1CC[C@@H](n3c(C)nc4cc(C)ccc43)[C@H](OC)C1)C2`
a: 65%

q: Ok, now `Cc1ccc2c(c1)nc(C)n2C1CCN(CCCc2cccc(NC(=O)C(C)C)c2)CC1`
a: 23%

q: What do we get for `CO[C@@H]1CN(C[C@H]2Cc3ccc(Br)cc3C2)CC[C@H]1n1c(C)nc2cc(C)ccc21` ?
a: 80%

* * *

- TESTED_ON: UniProtKB P35462
- Sequence (P35462 whole entry): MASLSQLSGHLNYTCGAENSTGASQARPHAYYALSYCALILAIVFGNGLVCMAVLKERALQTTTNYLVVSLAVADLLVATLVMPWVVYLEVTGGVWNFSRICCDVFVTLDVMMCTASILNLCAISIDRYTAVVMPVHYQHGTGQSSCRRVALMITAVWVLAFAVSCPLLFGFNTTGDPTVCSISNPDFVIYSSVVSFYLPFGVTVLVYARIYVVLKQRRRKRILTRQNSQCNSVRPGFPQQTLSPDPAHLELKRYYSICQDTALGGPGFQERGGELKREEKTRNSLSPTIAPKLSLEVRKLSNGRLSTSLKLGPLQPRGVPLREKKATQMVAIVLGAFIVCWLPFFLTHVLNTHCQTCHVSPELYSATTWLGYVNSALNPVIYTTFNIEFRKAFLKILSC
- METHOD_DESCRIPTION: Inhibition of dopamine D3 receptor at 10 uM
So basically: inhibition at 80% or higher? That is class 1. Lower than 80%? That is class 0.

q: Would you say `CO[C@@H]1CN(CC2Cc3ccccc3C2)CC[C@H]1n1c(C)nc2cc(C)ccc21` shows inhibition at minimum 80%?
a: class 0

q: // same read-out, input: `COC(=O)Nc1ccc2c(c1)C[C@@H](CN1CC[C@@H](n3c(C)nc4cc(C)ccc43)[C@H](OC)C1)C2`
a: class 0

q: Another: `CO[C@@H]1CN(C[C@H]2Cc3ccc(C#N)cc3C2)CC[C@H]1n1c(C(C)(C)O)nc2cc(C)ccc21`
a: class 0

q: Please answer likewise for `CO[C@H]1CN(CCCc2cccc(NC(=O)C3CC3)c2)CC[C@@H]1n1c(C)nc2cc(C)ccc21`
a: class 0

q: And what about the molecule `CO[C@@H]1CN(C[C@H]2Cc3ccc(Br)cc3C2)CC[C@H]1n1c(C)nc2cc(C)ccc21` ?
a: class 1
